Entries and their inhibition (%) values follow.
System: NIH/3T3 cells
Test: Cell death protective effect in fibroblasts against Erastin, glutamate and RSL3 (LDH)
Assay type: cell-based, mouse
Details: NIH/3T3, Erastin 3 μM, compound 1.0 μM, 24 hours
recorded_metric: inhibition (%)

| molecule | recorded_metric | readout_value |
| --- | --- | --- |
| COCCOCc1cc(NC2CCN(C(C)=O)CC2)c2[nH]c(-c3ccccc3)cc2c1 [Example 30] | inhibition (%) | 100% |
| COCCOCc1cc(NCc2ccncc2)c2[nH]c(-c3ccccc3)cc2c1 [Example 45] | inhibition (%) | 100% |
| CCOC(=O)c1ccc(NC2CCCCC2)c(N)c1 [Ferrostatin-1, reference compound] | inhibition (%) | 99% |
| COCCOCCOCc1cc(NC2CCCC2)c2[nH]c(-c3ccccc3)cc2c1 [Example 39] | inhibition (%) | 100% |
| COCCOCc1cc(NC2CCOCC2)c2[nH]cc(C)c2c1 [Example 50] | inhibition (%) | 8% |
| COCCOCc1cc(NC2CCNCC2)c2[nH]c(-c3ccccc3)cc2c1 [Example 64] | inhibition (%) | 100% |
| COCCOCc1cc(NC2CCOCC2)c2[nH]c(-c3ccccc3)cc2c1 [Example 1] | inhibition (%) | 100% |
| CCOCCOCc1cc(NC2CCCC2)c2[nH]c(-c3ccccc3)cc2c1 [Example 36] | inhibition (%) | 100% |
| COCCOCc1cc(NCC2CCOCC2)c2[nH]c(-c3ccccc3)cc2c1 [Example 4] | inhibition (%) | 99% |

* * *

Assay: Plasma and brain drug concentration after oral administration (HPLC-MS/MS)
Assay type: in vivo
Settings: brain/plasma; ICR mouse, oral 10 mg/kg; read-out: B/P ratio of AUClast
recorded_metric: Kp

| molecule_smiles | recorded_metric | readout_value |
| --- | --- | --- |
| COCCOCc1cc(NC2CCCC2)c2[nH]c(-c3ccccc3)cc2c1 | Kp | 1.74 |

* * *

Test system: NRK-49F cells
Assay: Cell death protective effect in renal fibroblasts against Erastin, glutamate and RSL3 (LDH)
Type: cell-based, rat
Conditions: Erastin 3 μM, compound 0.1 μM, 24 hours
Property: inhibition (%); scope: individual compounds

| compound | display_unit | inhibition (%) |
| --- | --- | --- |
| COCCOCc1cc(NC2CCN(C(C)=O)CC2)c2[nH]c(-c3ccccc3)cc2c1 | % | 98 |
| COCCOCc1cc(NCc2ccncc2)c2[nH]c(-c3ccccc3)cc2c1 | % | 99 |
| COCCOCc1cc(NCC2CCOCC2)c2[nH]c(-c3ccccc3)cc2c1 | % | 99 |
| COCCOCc1cc(NC2CCNCC2)c2[nH]c(-c3ccccc3)cc2c1 | % | 100 |
| COCCOCc1cc(NC2CCOCC2)c2[nH]cc(C)c2c1 | % | 3 |
| COCCOCc1cc(NC2CCOCC2)c2[nH]c(-c3ccccc3)cc2c1 | % | 99 |
| COCCOCCOCc1cc(NC2CCCC2)c2[nH]c(-c3ccccc3)cc2c1 | % | 99 |
| CCOCCOCc1cc(NC2CCCC2)c2[nH]c(-c3ccccc3)cc2c1 | % | 99 |
| CCOC(=O)c1ccc(NC2CCCCC2)c(N)c1 [Ferrostatin-1, reference compound] | % | 99 |

* * *

System: NIH/3T3 cells
Test: Cell death protective effect in fibroblasts against Erastin, glutamate and RSL3 (LDH)
Format: cell-based, mouse
Details: NIH/3T3, Erastin 3 μM, compound 0.1 μM, 24 hours

| compound | system_name | display_unit | inhibition (%) |
| --- | --- | --- | --- |
| COCCOCc1cc(NCC2CCOCC2)c2[nH]c(-c3ccccc3)cc2c1 [Example 4] | NIH/3T3 cells | % | 99 |
| COCCOCc1cc(NC2CCOCC2)c2[nH]cc(C)c2c1 [Example 50] | NIH/3T3 cells | % | 0 |
| COCCOCc1cc(NC2CCNCC2)c2[nH]c(-c3ccccc3)cc2c1 [Example 64] | NIH/3T3 cells | % | 99 |
| CCOC(=O)c1ccc(NC2CCCCC2)c(N)c1 [Ferrostatin-1, reference compound] | NIH/3T3 cells | % | 17 |
| COCCOCc1cc(NCc2ccncc2)c2[nH]c(-c3ccccc3)cc2c1 [Example 45] | NIH/3T3 cells | % | 100 |
| CCOCCOCc1cc(NC2CCCC2)c2[nH]c(-c3ccccc3)cc2c1 [Example 36] | NIH/3T3 cells | % | 99 |
| COCCOCCOCc1cc(NC2CCCC2)c2[nH]c(-c3ccccc3)cc2c1 [Example 39] | NIH/3T3 cells | % | 99 |
| COCCOCc1cc(NC2CCOCC2)c2[nH]c(-c3ccccc3)cc2c1 [Example 1] | NIH/3T3 cells | % | 99 |
| COCCOCc1cc(NC2CCN(C(C)=O)CC2)c2[nH]c(-c3ccccc3)cc2c1 [Example 30] | NIH/3T3 cells | % | 6 |

* * *

Recorded concentration at 0.5 h for the following compounds
Assay: Plasma and brain drug concentration after oral administration (HPLC-MS/MS)
Assay type: in vivo
Conditions: ICR, mouse, plasma, po, 10 mg/kg, 0.5 hr

| compound | concentration at 0.5 h |
| --- | --- |
| OCc1cc(NC2CCCC2)c2[nH]c(-c3ccccc3)cc2c1 [Comparative Example, reference compound] | 1640 ng/mL |
| COCCOCc1cc(NC2CCCC2)c2[nH]c(-c3ccccc3)cc2c1 [Example 2] | 334 ng/mL |

* * *

Assay: Plasma and brain drug concentration after oral administration (HPLC-MS/MS)
Type: in vivo
Conditions: ICR, mouse, plasma, po, 10 mg/kg, 8 hr
concentration at 8 h: recorded values

| compound | concentration at 8 h [ng/mL] |
| --- | --- |
| COCCOCc1cc(NC2CCCC2)c2[nH]c(-c3ccccc3)cc2c1 | 232 |
| OCc1cc(NC2CCCC2)c2[nH]c(-c3ccccc3)cc2c1 [Comparative Example, reference compound] | 50.8 |

* * *

Tested on: H9C2 cells
Test: Cell death protective effect in cardiac myocytes against Erastin, glutamate and RSL3 (LDH)
Format: cell-based, rat
Settings: H9C2, RSL3 0.5 μM, compound 0.1 μM, 24 hours
Documented inhibition (%) across a set of compounds

| compound | inhibition (%) |
| --- | --- |
| COCCOCc1cc(NC2CCOCC2)c2[nH]c(-c3ccccc3)cc2c1 [Example 1] | 100 |
| CCOC(=O)c1ccc(NC2CCCCC2)c(N)c1 [Ferrostatin-1, reference compound] | 96 |
| COCCOCc1cc(NC2CCN(C(C)=O)CC2)c2[nH]c(-c3ccccc3)cc2c1 [Example 30] | 0 |
| COCCOCc1cc(NC2CCNCC2)c2[nH]c(-c3ccccc3)cc2c1 [Example 64] | 90 |

* * *

Tested on: NIH/3T3 cells
Test: Cell death protective effect in fibroblasts against Erastin, glutamate and RSL3 (LDH)
Format: cell-based, mouse
Settings: NIH/3T3, Glutamate 30 mM, compound 0.1 μM, 24 hours

| compound | inhibition (%) |
| --- | --- |
| COCCOCc1cc(NC2CCOCC2)c2[nH]cc(C)c2c1 | 99% |
| COCCOCc1cc(NC2CCN(C(C)=O)CC2)c2[nH]c(-c3ccccc3)cc2c1 | 100% |
| COCCOCc1cc(NC2CCOCC2)c2[nH]c(-c3ccccc3)cc2c1 | 100% |
| COCCOCc1cc(NC2CCNCC2)c2[nH]c(-c3ccccc3)cc2c1 | 99% |
| COCCOCCOCc1cc(NC2CCCC2)c2[nH]c(-c3ccccc3)cc2c1 | 99% |
| COCCOCc1cc(NCc2ccncc2)c2[nH]c(-c3ccccc3)cc2c1 | 0% |
| CCOCCOCc1cc(NC2CCCC2)c2[nH]c(-c3ccccc3)cc2c1 | 100% |
| COCCOCc1cc(NCC2CCOCC2)c2[nH]c(-c3ccccc3)cc2c1 | 100% |
| CCOC(=O)c1ccc(NC2CCCCC2)c(N)c1 [Ferrostatin-1, reference compound] | 97% |

* * *

Test: Plasma and brain drug concentration after oral administration (HPLC-MS/MS)
Assay type: in vivo
Details: brain/plasma; ICR mouse, oral 10 mg/kg, 24 hr; read-out: brain-plasma drug concentration ratio (B/P ratio)
recorded_metric: Kp at 24 h

| molecule_smiles | readout_value |
| --- | --- |
| COCCOCc1cc(NC2CCCC2)c2[nH]c(-c3ccccc3)cc2c1 | 2.04 |

* * *

System: ARPE-19 cells
Test: Cell death protective effect in retinal epithelial cells against Erastin and RSL3 (LDH)
Format: cell-based, human
Details: ARPE-19, Erastin 10 μM, compound 0.03 μM, 24 hours
Binary classification by inhibition (%), with 90% as an inclusive lower bound for 1 (yes); all other cases are 0 (no).

| compound | system_name | assigned_category |
| --- | --- | --- |
| CCOCCOCc1cc(NC2CCCC2)c2[nH]c(-c3ccccc3)cc2c1 [Example 36] | ARPE-19 cells | 1 (yes) |
| COCCOCc1cc(NC2CCNCC2)c2[nH]c(-c3ccccc3)cc2c1 [Example 64] | ARPE-19 cells | 1 (yes) |
| COCCOCc1cc(NC2CCOCC2)c2[nH]c(-c3ccccc3)cc2c1 [Example 1] | ARPE-19 cells | 1 (yes) |
| CCOC(=O)c1ccc(NC2CCCCC2)c(N)c1 [Ferrostatin-1, reference compound] | ARPE-19 cells | 0 (no) |
| COCCOCc1cc(NC2CCN(C(C)=O)CC2)c2[nH]c(-c3ccccc3)cc2c1 [Example 30] | ARPE-19 cells | 0 (no) |
| COCCOCc1cc(NCC2CCOCC2)c2[nH]c(-c3ccccc3)cc2c1 [Example 4] | ARPE-19 cells | 1 (yes) |
| COCCOCCOCc1cc(NC2CCCC2)c2[nH]c(-c3ccccc3)cc2c1 [Example 39] | ARPE-19 cells | 1 (yes) |
| COCCOCc1cc(NC2CCOCC2)c2[nH]cc(C)c2c1 [Example 50] | ARPE-19 cells | 0 (no) |
| COCCOCc1cc(NCc2ccncc2)c2[nH]c(-c3ccccc3)cc2c1 [Example 45] | ARPE-19 cells | 1 (yes) |
